# System name: NAD(P)H dehydrogenase [quinone] 1 (Homo sapiens, UniProt P15559)
# Sequence (P15559 whole entry): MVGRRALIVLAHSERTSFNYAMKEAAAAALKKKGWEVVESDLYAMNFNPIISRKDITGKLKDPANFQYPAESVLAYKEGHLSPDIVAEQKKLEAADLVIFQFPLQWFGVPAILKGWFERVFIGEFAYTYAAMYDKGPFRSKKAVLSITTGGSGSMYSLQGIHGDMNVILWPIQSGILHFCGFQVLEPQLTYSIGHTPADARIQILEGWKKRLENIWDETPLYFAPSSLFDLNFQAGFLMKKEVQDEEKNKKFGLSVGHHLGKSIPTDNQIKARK
# Assay info: Inhibition of NQO1 (With 2 uM BSA)
# Test settings: pH 7.5
Assay endpoint: IC50 (nM)

1. O=c1oc2c(ccc3ccccc32)c(O)c1Cc1ccccc1 [4-hydroxy-2H-chromen-2-one core, 21]
2. O=c1oc2ccc3ccccc3c2c(O)c1Cc1ccc2ccccc2c1 [4-hydroxy-2H-chromen-2-one core, 23]
Could you please tell me which of these two has the higher IC50: 1 or 2 ? Your choice should be expressed through its label.
1
(1: 35 nM, 2: 6 nM)
